systemName: NEIL1 (Homo sapiens)
Construct: made in house
testName: gel-based incision assay of oligodeoxynucleotides containing site-specific base lesions
Type: biochemical
conditionNotes: polyacrylamide gel, reaction quenched at 20 min
pIC50: −log10 of the molar value.
endpointLabel: pIC50

INPUT: Quick check: pIC50 of O=C(C1CCCN(c2ncnc3c2nc2n3CCCCC2)C1)N1CCN(c2cccc(Cl)c2)CC1 (stereo not shown) [Purine P17] ?
OUTPUT: < 4.30

INPUT: Quick check: pIC50 of Cc1cc(/C=C/C#N)cc(C)c1Nc1nc(Nc2ccc3c(c2)CCC3)c2nc[nH]c2n1 [Purine P7] ?
OUTPUT: 4.93

INPUT: Quick check: pIC50 of COc1ccccc1CNC(=O)C1CCN(c2ncnc3c2nc2n3CCCCC2)CC1 [Purine P37] ?
OUTPUT: < 4.30

INPUT: Quick check: pIC50 of C=CC(=O)N1CCCC(Nc2nc(Nc3ccc(N(C)C(=O)CC)cc3C)nc3nc[nH]c23)C1 (stereo not shown) [Purine P12] ?
OUTPUT: < 4.70

====

Measured IC50 accompanies every entry in the list below.
systemName: NEIL1 (Homo sapiens)
Construct: made in house
testName: qHTS fluorogenic glycosylase/AP lyase assay, 1536-well, Sp/Gh substrate
Type: biochemical
conditionNotes: 5 concentrations
Provide only the numeric value, understood in µM.

                                   molecule  measurementunit  recordedvalue
0        CCNc1nc(C#N)nc2c1ncn2-c1cccc(Cl)c1               µM             10
1  O=C(C1CCN(c2ncnc3c2nc2n3CCCCC2)CC1)N1CCN(c2cccc(Cl)c2)CC1               µM             20
2  Nc1ncnc2c1ncn2[C@@H]1O[C@H](CNCc2cccc(C#Cc3ccccc3)c2)[C@@H](O)[C@H]1O               µM           12.6
3  Cc1ccc(NC(=O)C2CCCN(c3ncnc4c3nc3n4CCCCC3)C2)cc1Cl (stereo not shown)               µM           25.1
4  CN(C)CCNc1ncnc2c1ncn2[C@H]1CN(Cc2ccc(-c3ccccc3)cc2)C[C@@H](CO)O1               µM           15.8
5  COc1ccc2[nH]cc(CCNC(=O)/C=C/[C@H]3O[C@@H](n4cnc5c(NC(=O)c6ccccc6)ncnc54)[C@H](O)[C@@H]3O)c2c1               µM           11.2
6  COc1cccc(-c2cc(CNC(=O)[C@H]3O[C@@H](n4cnc5c(N)ncnc54)[C@H](O)[C@@H]3O)no2)c1               µM             10
7  COc1ccccc1CNC(=O)C1CCN(c2ncnc3c2nc2n3CCCCC2)CC1               µM             10

INPUT: Quick check: IC50 of "OC[C@@H]1CN(Cc2ccccc2)C[C@H](n2cnc3c(N4CCN(c5ccccc5)CC4)ncnc32)O1" ?
OUTPUT: 0.3

INPUT: Quick check: IC50 of C=CC(=O)N1CCCC(Nc2nc(Nc3ccc(N(C)C(=O)CC)cc3C)nc3nc[nH]c23)C1 (stereo not shown) ?
OUTPUT: 11.2

INPUT: Quick check: IC50 of "N#Cc1nc(Nc2cc(F)cc(F)c2)c2ncn(CCCN3CCCC3)c2n1" ?
OUTPUT: 7.9

INPUT: Quick check: IC50 of N#Cc1nc(Nc2cc(F)cc(F)c2)c2ncn(CCN3CCCC3)c2n1 [Purine P1] ?
OUTPUT: 3.6

INPUT: Quick check: IC50 of "Cc1ccc(C(=O)Nc2cccc(C(F)(F)F)c2)cc1Nc1ncnc2nc[nH]c12" ?
OUTPUT: 22.4

INPUT: Quick check: IC50 of O=C(C1CCCN(c2ncnc3c2nc2n3CCCCC2)C1)N1CCN(c2ccc(F)cc2)CC1 (stereo not shown) ?
OUTPUT: 0.8

INPUT: Quick check: IC50 of CCc1cccc(NC(=O)C2CCCN(c3ncnc4c3nc3n4CCCCC3)C2)c1 (stereo not shown) ?
OUTPUT: 0.7

====

systemName: NEIL1 (Homo sapiens, UniProt Q96FI4)
Construct: made in house
Sequence (Q96FI4 whole entry): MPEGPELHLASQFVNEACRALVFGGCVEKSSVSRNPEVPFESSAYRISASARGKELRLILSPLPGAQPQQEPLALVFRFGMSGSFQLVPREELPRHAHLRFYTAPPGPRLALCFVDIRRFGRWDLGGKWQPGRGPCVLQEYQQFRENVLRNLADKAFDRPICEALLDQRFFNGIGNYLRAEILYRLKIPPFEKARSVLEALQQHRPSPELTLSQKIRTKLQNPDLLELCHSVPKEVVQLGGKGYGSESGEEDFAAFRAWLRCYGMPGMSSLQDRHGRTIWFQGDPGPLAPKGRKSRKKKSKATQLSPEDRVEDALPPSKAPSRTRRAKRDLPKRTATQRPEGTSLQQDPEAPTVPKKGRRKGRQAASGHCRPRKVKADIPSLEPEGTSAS
testName: qHTS fluorogenic glycosylase/AP lyase assay, 1536-well, Sp/Gh substrate
Format: biochemical
conditionNotes: 5 concentrations
endpointLabel: IC50 (µM)
Provide only the numeric value, understood in µM.

// known answers, use as guide
In [3]: df
Out[3]:
                                   compound                            systemname  endpointlabel  recordedvalue
0  Cc1cc(/C=C/C#N)cc(C)c1Nc1nc(Nc2ccc3c(c2)CCC3)c2nc[nH]c2n1 [Purine P7]  NEIL1 (Homo sapiens, UniProt Q96FI4)           IC50            8.9
1  Cc1cc(C)c(CN2CCN(C(=O)Cn3cnc4c(NCc5ccccc5)ncnc43)CC2)c(C)c1 [Purine P25]  NEIL1 (Homo sapiens, UniProt Q96FI4)           IC50           31.6
2  Cc1cc(/C=C/C#N)cc(C)c1Nc1nc(Nc2ccc3n[nH]nc3c2)c2[nH]cnc2n1 [Purine P18]  NEIL1 (Homo sapiens, UniProt Q96FI4)           IC50           17.8

INPUT: Quick check: IC50 of Nc1nc(N)c2[nH]c(-c3ccccc3)nc2n1 [Purine P36] ?
OUTPUT: 15.5

====

systemName: NEIL1 (Homo sapiens, UniProt Q96FI4)
Construct: made in house
testName: qHTS fluorogenic glycosylase/AP lyase assay, 1536-well, Sp/Gh substrate
Format: biochemical
conditionNotes: 5 concentrations
endpointLabel: IC50
Respond with the figure and its unit, in that order.

// known answers, use as guide
                                   compound  endpointlabel  recordedvalue
0  CC(C)n1cnc2c(N(C)c3ccccc3)nc(N(CCN(C)C)Cc3ccccc3)nc21           IC50        12.6 µM
1   c1ccc(COc2ccc(Nc3ncnc4nc[nH]c34)cc2)cc1           IC50        31.6 µM
2  CC(=O)OC[C@@H]1CN(Cc2ccccc2)C[C@H](n2cnc3c(NCc4ccc(F)cc4)ncnc32)O1           IC50         0.9 µM
3  CC(C)[C@H](CO)N(Cc1cccc(F)c1)c1nc(Nc2cccc(Cl)c2)c2ncn(C(C)C)c2n1           IC50         7.1 µM
4  Cc1c2ccncc2c(C)c2c1[nH]c1ccccc12 [ellipticine, reference compound]           IC50           2 µM
5  CC(=O)c1ccc(N2CCN(C(=O)C3CCCN(c4ncnc5c4nc4n5CCCCC4)C3)CC2)cc1 (stereo not drawn)           IC50         0.6 µM

Next up:
INPUT: Quick check: IC50 of "Cc1cccc(OCCSc2nc3c([nH]2)c(=N)ncn3Cc2ccccc2)c1" ?
OUTPUT: 0.6 µM

====

systemName: NEIL1 (Homo sapiens, UniProt Q96FI4)
Construct: made in house
testName: qHTS fluorogenic glycosylase/AP lyase assay, 1536-well, Sp/Gh substrate
Type: biochemical
conditionNotes: 5 concentrations
endpointLabel: IC50
Respond with the figure and its unit, in that order.

>>> print(df.to_string())
                                   compound                            systemname  recordedvalue
0  CNC(=O)[C@H]1O[C@H](n2cnc3c(NCc4cccc(I)c4)ncnc32)[C@@H](O)[C@@H]1O  NEIL1 (Homo sapiens, UniProt Q96FI4)         1.8 µM
1  Cc1nc2ccc(Nc3nc(Nc4c(C)cc(/C=C/C#N)cc4C)nc4[nH]cnc34)cc2s1  NEIL1 (Homo sapiens, UniProt Q96FI4)         7.9 µM
2  CC(C)CNc1ncnc2c1ncn2[C@H]1CN(Cc2ccc(-c3ccccc3)cc2)C[C@@H](CO)O1  NEIL1 (Homo sapiens, UniProt Q96FI4)        14.1 µM
3  CC(C)n1cnc2c(NCc3ccccc3)nc(NCc3ccccc3)nc21  NEIL1 (Homo sapiens, UniProt Q96FI4)         7.9 µM

INPUT: Quick check: IC50 of Cc1ccccc1CN1CCC(CNC(=O)C2CCCN(c3ncnc4c3nc3n4CCCCC3)C2)CC1 (centres unmarked) ?
OUTPUT: 7.1 µM

INPUT: Quick check: IC50 of O=C(OCC1OC(n2cnc3c(N(C(=O)c4ccccc4)C(=O)c4ccccc4)ncnc32)C(O)C1F)c1ccccc1 (centres unmarked) ?
OUTPUT: 3.2 µM

INPUT: Quick check: IC50 of Cc1cc(/C=C/C#N)cc(C)c1Nc1nc(Nc2ccc3scnc3c2)c2nc[nH]c2n1 [Purine P2] ?
OUTPUT: 4 µM

Source: paper PMC3857224
